MEASUREMENT_KIND: melting point

input: Fill in the blank: the reported melting point of O=C1C=C(NC(=O)C(=O)c2cn(Cc3ccc(Cl)cc3)c3cccc(CO)c23)CO1 is ____.
output: 238 to 240 °C

Can you give me melting point for all of these, one by one?
1. O=C1C=C(NC(=O)C(=O)c2cn(Cc3ccc(Cl)cc3)c3ccccc23)CS1
2. NCCNC(=O)c1cccc2c1c(C(=O)C(=O)NC1=CC(=O)OC1)cn2Cc1ccc(Cl)cc1
3. O=C1C=C(NC(=O)C(=O)c2cn(Cc3ccc(F)cc3)c3ccccc23)CO1
4. O=C1C=C(NC(=O)C(=O)c2cn(Cc3ccc(Cl)cc3)c3ccccc23)CO1
5. CN(C)CCNC(=O)c1cccc2c1c(C(=O)C(=O)NC1=CC(=O)OC1)cn2Cc1ccc(Cl)cc1

output:
268 to 270 °C
190 to 196 °C
260 to 262 °C
253 to 255 °C
225 to 227 °C
